# Organism: Rattus norvegicus
# Assay summary: Ratio of binding affinities for opioid receptors delta 1 and mu 1
Non-standard residues stand in square brackets, D forms with d. Residues, ends and D or L forms follow the SMILES beside them. Dmt = Cc1cc(O)cc(C)c1C[C@H](N)C(=O)O; Tic = O=C(O)[C@@H]1Cc2ccccc2CN1
Assign Ratio to each entry below.
Reply with the value as a number alone.

// query Given Cc1cc(O)cc(C)c1C[C@H](N)C(=O)NCN , state its recorded Ratio.
// result 13.4

// query Entry Cc1cc(O)cc(C)c1C[C@H](N)C(=O)O : reported Ratio = ?
// result 1.55

// query Need Ratio of Cc1cc(O)cc(C)c1C[C@H](N)C(=O)NCCC(=O)O , thanks.
// result 1

// query Reported Ratio, compound Cc1cc(O)cc(C)c1C[C@H](N)C(=O)NC1CCCCC1 : ____
// result 1.71

// query Quick check: Ratio of Cc1cc(O)cc(C)c1C[C@H](N)C(=O)NO ?
// result 5.58

// query Entry Cc1cc(O)cc(C)c1C[C@H](N)C(=O)NCCN : reported Ratio = ?
// result 338

// query # query: Ratio of entry Cc1cc(O)cc(C)c1C[C@H](N)C(=O)NC12CC3CC(CC(C3)C1)C2
// result 0.27

// query Consider the compound shown here: Cc1cc(O)cc(C)c1C[C@H](N)C(=O)NCC(=O)O What is its recorded Ratio?
// result 0.43

// query Consider the compound Cc1cc(O)cc(C)c1C[C@H](N)C(=O)Nc1ccccc1 and give its measured Ratio.
// result 0.069

// query What value of Ratio has been reported for the following compound? CCCNC(=O)[C@@H](N)Cc1c(C)cc(O)cc1C
// result 9.82

// query Returns the measured Ratio for the input compound. Input: Cc1cc(O)cc(C)c1C[C@H](N)C(=O)NC1C2CC3CC(C2)CC1C3 (some centres undefined)
// result 0.23

// query Tell me the measured Ratio of Cc1cc(O)cc(C)c1C[C@H](N)C(=O)N1Cc2ccccc2C[C@H]1C(=O)O (H-[Dmt]-[Tic]-OH) , please.
// result 6.6e-07

// query For the compound Cc1cc(O)cc(C)c1C[C@H](N)C(=O)NC(C)C , what Ratio is on record?
// result 22

// query Which Ratio is reported for this compound? CNC(=O)[C@@H](N)Cc1c(C)cc(O)cc1C
// result 61.7

----------
# Species on record: Rattus norvegicus
# Assay summary: Ratio of binding affinities for opioid receptors delta 1 and mu 1
Quantity: Ratio
# answer = number (no unit)

// query # query: Ratio of entry CCNC(=O)[C@@H](N)Cc1c(C)cc(O)cc1C
// result 41.6

// query May I ask what Ratio has been recorded for Cc1cc(O)cc(C)c1C[C@H](N)C(=O)Nc1cccc2ccccc12 ?
// result 0.054

// query Which Ratio is reported for this compound? Cc1cc(O)cc(C)c1C[C@H](N)C(N)=O
// result 13

// query Would you kindly share the measured Ratio for Cc1cc(O)cc(C)c1C[C@H](N)C(=O)NC(C)(C)C ?
// result 14.8

// query Fill blank: measured Ratio of the compound Cc1cc(O)cc(C)c1C[C@H](N)C(=O)NCCO is ____.
// result 28.1

// query Param item = CONC(=O)[C@@H](N)Cc1c(C)cc(O)cc1C ; retrieve measured Ratio.
// result 26.3

----------
Task for the reader: assign each of the following compounds its reported Ki.
# Assay summary: Binding affinity for rat brain opioid receptor delta 1
// unit must come after the numeric part

// query May I ask what Ki has been recorded for Cc1cc(O)cc(C)c1C[C@H](N)C(N)=O ?
// result 1470 nM

// query Suppose we examine the compound Cc1cc(O)cc(C)c1C[C@H](N)C(=O)NC1CCCCC1 ; what Ki value has been reported?
// result 197 nM

// query Requested read-out: Ki. Entry: CCNC(=O)[C@@H](N)Cc1c(C)cc(O)cc1C
// result 649 nM

// query Param item = Cc1cc(O)cc(C)c1C[C@H](N)C(=O)Nc1cccc2ccccc12 ; retrieve measured Ki.
// result 52.8 nM

Data origin: ChEMBL document CHEMBL1144275
